self-splicing fitness (ln) reference
Experiment: self-splicing fitness, log relative to wild type (ln ratio); higher = more splicing; Tetrahymena group I intron in knt gene, E. coli kanamycin selection, DiMSum; sequences stand for … in CUCUCU…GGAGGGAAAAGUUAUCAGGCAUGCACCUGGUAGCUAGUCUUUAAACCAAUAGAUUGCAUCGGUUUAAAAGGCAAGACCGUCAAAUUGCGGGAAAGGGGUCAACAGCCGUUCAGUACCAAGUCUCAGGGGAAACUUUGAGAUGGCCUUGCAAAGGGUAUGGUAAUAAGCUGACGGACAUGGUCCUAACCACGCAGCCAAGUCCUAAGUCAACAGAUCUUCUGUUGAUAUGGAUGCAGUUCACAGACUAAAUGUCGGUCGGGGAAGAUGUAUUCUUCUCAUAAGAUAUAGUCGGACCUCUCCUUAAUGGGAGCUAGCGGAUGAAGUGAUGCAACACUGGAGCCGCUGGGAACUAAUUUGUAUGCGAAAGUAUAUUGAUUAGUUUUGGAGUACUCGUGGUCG;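 note: selection with 25 µg/mL kanamycin versus none on LB agar overnight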
Conditions: 30 °C
Respond numerically, and do not add a unit to the figure.

Task: I would be grateful if you could share the reported self-splicing fitness (ln) for UUAUAGCAAUAUUACGGGAC .
Result: -2.91

Task: Also UUCUAGCAAUAUUACGUGCC , if possible.
Result: -3.06

Task: Also UGUGAGCAAUAUUACGAAUU , if possible.
Result: -4.64

Task: Also CCCCAGCAAUAUUACGCGGG , if possible.
Result: -4.19

Task: Also AAUAAGCAAUAUUACGAACC , if possible.
Result: -1.33

---

Assay: self-splicing fitness, log relative to wild type (ln ratio); higher = more splicing; Tetrahymena group I intron in knt gene, E. coli kanamycin selection, DiMSum; sequences stand for … in CUCUCU…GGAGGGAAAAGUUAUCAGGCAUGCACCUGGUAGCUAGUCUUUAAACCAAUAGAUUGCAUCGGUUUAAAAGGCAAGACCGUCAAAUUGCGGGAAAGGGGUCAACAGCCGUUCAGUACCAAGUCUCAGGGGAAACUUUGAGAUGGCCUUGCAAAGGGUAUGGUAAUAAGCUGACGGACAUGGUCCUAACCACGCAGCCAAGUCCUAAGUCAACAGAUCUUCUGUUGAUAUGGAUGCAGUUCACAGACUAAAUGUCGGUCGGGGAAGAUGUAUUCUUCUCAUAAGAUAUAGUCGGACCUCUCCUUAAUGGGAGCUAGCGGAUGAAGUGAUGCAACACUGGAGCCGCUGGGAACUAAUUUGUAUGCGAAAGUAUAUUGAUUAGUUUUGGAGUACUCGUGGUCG
Settings: 30 °C
measure_name: self-splicing fitness (ln)
Respond numerically, and do not add a unit to the figure.

Task: I would be grateful if you could share the reported self-splicing fitness (ln) for UCAAAGCAAUAUUACGAUUA .
Result: -1.26

---

Test: self-splicing fitness, log relative to wild type (ln ratio); higher = more splicing; Tetrahymena group I intron in knt gene, E. coli kanamycin selection, DiMSum; sequences stand for … in CUCUCU…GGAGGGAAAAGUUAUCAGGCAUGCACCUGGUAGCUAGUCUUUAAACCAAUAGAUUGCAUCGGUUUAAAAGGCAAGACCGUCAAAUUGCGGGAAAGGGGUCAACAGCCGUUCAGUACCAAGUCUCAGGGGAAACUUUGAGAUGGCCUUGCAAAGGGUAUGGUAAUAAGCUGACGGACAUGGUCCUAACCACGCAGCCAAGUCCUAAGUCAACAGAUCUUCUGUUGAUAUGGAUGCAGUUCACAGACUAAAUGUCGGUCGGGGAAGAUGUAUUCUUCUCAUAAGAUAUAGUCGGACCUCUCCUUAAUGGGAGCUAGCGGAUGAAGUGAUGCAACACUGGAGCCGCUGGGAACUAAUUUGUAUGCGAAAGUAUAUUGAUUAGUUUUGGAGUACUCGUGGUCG
Settings: 37 °C
measure_name: self-splicing fitness (ln)
Respond numerically, and do not add a unit to the figure.

Here is how some sequences turned out for self-splicing fitness (ln).
residue_sequence=UCUCAGCAAUAUUACGAACA measure_name="self-splicing fitness (ln)" quantitative_readout=-1.01
residue_sequence=AAGCAGCAAUAUUACGGAGC measure_name="self-splicing fitness (ln)" quantitative_readout=-3.05
residue_sequence=AGGAAGCAAUAUUACGCCUA measure_name="self-splicing fitness (ln)" quantitative_readout=-0.497
residue_sequence=ACUAAGCAAUAUUACGAAAA measure_name="self-splicing fitness (ln)" quantitative_readout=-1.72
residue_sequence=GUUAAGCAAUAUUACGGACA measure_name="self-splicing fitness (ln)" quantitative_readout=-1.18

Task: I would be grateful if you could share the reported self-splicing fitness (ln) for GGCAAGCAAUAUUACGGCAA .
Result: 0.388

Task: Also CCGCAGCAAUAUUACGACGU , if possible.
Result: -2.38

Task: Also UAUUAGCAAUAUUACGGGUG , if possible.
Result: 0.0549

---

self-splicing fitness (ln) reference
Assay: self-splicing fitness, log relative to wild type (ln ratio); higher = more splicing; Tetrahymena group I intron in knt gene, E. coli kanamycin selection, DiMSum; sequences stand for … in CUCUCU…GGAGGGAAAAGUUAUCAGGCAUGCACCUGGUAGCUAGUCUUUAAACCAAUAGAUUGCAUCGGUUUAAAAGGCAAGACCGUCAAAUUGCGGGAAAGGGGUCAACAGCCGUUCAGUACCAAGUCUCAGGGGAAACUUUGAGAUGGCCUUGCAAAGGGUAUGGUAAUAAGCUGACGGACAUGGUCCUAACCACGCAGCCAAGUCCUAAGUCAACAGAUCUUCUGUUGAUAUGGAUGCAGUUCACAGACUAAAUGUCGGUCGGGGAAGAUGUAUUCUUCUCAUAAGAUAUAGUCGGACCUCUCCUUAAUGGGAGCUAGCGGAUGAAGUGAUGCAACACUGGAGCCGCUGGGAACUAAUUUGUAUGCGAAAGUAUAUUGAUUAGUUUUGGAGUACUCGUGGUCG
Conditions: 30 °C
Respond numerically, and do not add a unit to the figure.

Here is how some sequences turned out for self-splicing fitness (ln).
residue_sequence=UCUAAGCAAUAUUACGCGCA quantitative_readout=-0.493
residue_sequence=UAUUAGCAAUAUUACGGAAA quantitative_readout=-1.81
residue_sequence=UGAAAGCAAUAUUACGACGU quantitative_readout=-1.06
residue_sequence=CAUUAGCAAUAUUACGAUUC quantitative_readout=-2.1

Task: I would be grateful if you could share the reported self-splicing fitness (ln) for GUACAGCAAUAUUACGGCUU .
Result: -0.512

Task: Also GAAGAGCAAUAUUACGGGCU , if possible.
Result: -3.17

Task: Also UCGAAGCAAUAUUACGCCCU , if possible.
Result: -2.45

Task: Also UCCAAGCAAUAUUACGCAGA , if possible.
Result: -1.58

Task: Also CCUUAGCAAUAUUACGGCAA , if possible.
Result: -3.57

---

Assay: self-splicing fitness, log relative to wild type (ln ratio); higher = more splicing; Tetrahymena group I intron in knt gene, E. coli kanamycin selection, DiMSum; sequences stand for … in CUCUCU…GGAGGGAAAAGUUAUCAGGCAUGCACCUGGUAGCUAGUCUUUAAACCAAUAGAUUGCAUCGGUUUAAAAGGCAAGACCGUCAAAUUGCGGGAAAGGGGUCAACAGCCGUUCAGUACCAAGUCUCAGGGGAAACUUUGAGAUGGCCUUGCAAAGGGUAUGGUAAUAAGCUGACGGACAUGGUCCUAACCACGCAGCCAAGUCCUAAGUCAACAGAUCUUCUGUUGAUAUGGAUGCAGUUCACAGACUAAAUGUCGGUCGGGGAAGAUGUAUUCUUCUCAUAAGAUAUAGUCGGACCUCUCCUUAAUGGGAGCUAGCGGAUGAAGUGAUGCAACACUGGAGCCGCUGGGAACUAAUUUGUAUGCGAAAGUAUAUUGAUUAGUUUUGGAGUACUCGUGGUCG
Details: 30 °C
self-splicing fitness (ln) reference
Respond numerically, and do not add a unit to the figure.

residue_sequence=ACUUAGCAAUAUUACGUUUU quantitative_readout=-3.39
residue_sequence=CAAGAGCAAUAUUACGCAUU quantitative_readout=-3.39
residue_sequence=UCAGAGCAAUAUUACGCAAG quantitative_readout=-1.74
residue_sequence=AGCAAGCAAUAUUACGUCCG quantitative_readout=-0.909
residue_sequence=AGGCAGCAAUAUUACGGCGC quantitative_readout=-1.13
residue_sequence=AUAUAGCAAUAUUACGGGGU quantitative_readout=-2.23

Task: I would be grateful if you could share the reported self-splicing fitness (ln) for AUUUAGCAAUAUUACGUCCC .
Result: -0.0323

Task: Also CUACAGCAAUAUUACGACAG , if possible.
Result: -0.672

---

Assay: self-splicing fitness, log relative to wild type (ln ratio); higher = more splicing; Tetrahymena group I intron in knt gene, E. coli kanamycin selection, DiMSum; sequences stand for … in CUCUCU…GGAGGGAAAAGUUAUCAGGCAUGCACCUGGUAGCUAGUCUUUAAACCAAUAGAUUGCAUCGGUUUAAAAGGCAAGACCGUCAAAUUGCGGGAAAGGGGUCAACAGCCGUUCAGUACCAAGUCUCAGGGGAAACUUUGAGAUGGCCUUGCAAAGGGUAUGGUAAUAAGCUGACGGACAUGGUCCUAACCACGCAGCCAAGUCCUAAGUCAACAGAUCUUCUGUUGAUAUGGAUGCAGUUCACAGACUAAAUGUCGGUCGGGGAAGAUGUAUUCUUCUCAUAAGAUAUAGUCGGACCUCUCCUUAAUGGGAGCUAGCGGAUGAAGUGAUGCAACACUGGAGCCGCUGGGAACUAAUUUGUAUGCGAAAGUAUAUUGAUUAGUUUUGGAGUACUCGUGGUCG
Conditions: 30 °C
Use -2 as the dividing line for self-splicing fitness (ln), with the line itself on the YES side and lower values as NO.

residue_sequence=GAUUAGCAAUAUUACGAGCG assigned_category=YES
residue_sequence=ACUCAGCAAUAUUACGCAGA assigned_category=NO
residue_sequence=AAUCAGCAAUAUUACGUUGU assigned_category=NO
residue_sequence=UUAGAGCAAUAUUACGCGGG assigned_category=YES
residue_sequence=AUCUAGCAAUAUUACGCAGU assigned_category=NO
residue_sequence=GGACAGCAAUAUUACGAGGC assigned_category=NO
residue_sequence=AGCUAGCAAUAUUACGAUAC assigned_category=NO
residue_sequence=CUUUAGCAAUAUUACGCCCG assigned_category=YES
residue_sequence=AUUCAGCAAUAUUACGUGAU assigned_category=YES
residue_sequence=CCCGAGCAAUAUUACGCACA assigned_category=NO

Task: Tell me whether self-splicing fitness (ln) is at least -2 here: CCGAAGCAAUAUUACGAAGA
Result: NO

Task: Also GAGAAGCAAUAUUACGGGUG , if possible.
Result: YES

Task: Also GGAAAGCAAUAUUACGUGUG , if possible.
Result: NO

Task: Also GAUGAGCAAUAUUACGGUGG , if possible.
Result: NO

Task: Also GCGGAGCAAUAUUACGUCUG , if possible.
Result: NO

Task: Also GUUAAGCAAUAUUACGGCUG , if possible.
Result: YES

Task: Also UACAAGCAAUAUUACGCGUC , if possible.
Result: NO

Task: Also GGGAAGCAAUAUUACGUGGU , if possible.
Result: NO

Task: Also CGCUAGCAAUAUUACGGACC , if possible.
Result: NO

Task: Also GUUGAGCAAUAUUACGUUAC , if possible.
Result: NO

Task: Also CAGGAGCAAUAUUACGGGUU , if possible.
Result: NO

Task: Also GGCAAGCAAUAUUACGCCAC , if possible.
Result: NO

Task: Also ACGGAGCAAUAUUACGGCUC , if possible.
Result: NO

Task: Also AGAUAGCAAUAUUACGACUA , if possible.
Result: YES

Task: Also CUGAAGCAAUAUUACGGUAG , if possible.
Result: YES
